- Test system: NF-kB
- ASSAY SUMMARY: Gene reporter (GR) assay, NF-kB activation after TNFα in JB6 Cl 41-5a (P+) cells
- Assay type: cell-based, murine
- ASSAY SETUP: Mus musculus, JB6 Cl 41-5a; 3 μM; read-out: Gene reporter (GR) inhibition % effect at max concentration
Some compounds, each annotated with its measured inhibition at 3 µM.
READOUT LABEL: inhibition at 3 µM

> print(dat)
                            compound.smiles  recorded.measurement
1  Cc1ccc(NC(=O)N2CCC3(CCC3)C2)cc1CCc1cc(Nc2nccnc2C)[nH]n1                   45%
2  Cc1nc(CN2CCOCC2)cc(Nc2cc(CCc3cc(NC(=O)c4cccc(C(F)(F)F)c4)ccc3F)[nH]n2)n1                   50%
3  Cc1nc(Nc2cc(CCc3cc(NC(=O)c4cccc(C(F)(F)F)c4)ccc3F)n[nH]2)cc(N2CC[C@H](N(C)C)C2)n1                   29%
4  CCC1(CC)CCN(C(=O)Nc2ccc(C)c(CCc3cc(Nc4nccnc4C)[nH]n3)c2)C1                   37%
5  Cc1ccc(NC(=O)c2ccnc(C(C)(C)C#N)c2)cc1CCc1cnc(Nc2cnccn2)s1                   86%
